B1: Azoarcus group I ribozyme (parent)
chain: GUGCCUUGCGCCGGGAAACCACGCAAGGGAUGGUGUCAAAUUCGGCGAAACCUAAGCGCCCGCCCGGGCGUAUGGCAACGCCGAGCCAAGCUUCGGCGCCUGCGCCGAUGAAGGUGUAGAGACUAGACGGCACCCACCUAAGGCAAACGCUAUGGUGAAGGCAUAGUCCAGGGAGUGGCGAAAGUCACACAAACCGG

Variants of: B1
protocol-text: reverse-splicing fitness (ratio to wild type); higher = more active; in vitro selection; Mg2+ level not given

mutation-annotation: C82U A111U A145C C150A C169G U176G
reverse-splicing fitness: 0.00573
//
mutation-annotation: C82U A111G A120G A145U C150G U176C
reverse-splicing fitness: 0.00779
//
mutation-annotation: A111U A145C C150G C169U
reverse-splicing fitness: 0.0175
//
mutation-annotation: C82U A111G A120U A145G C150A U176C
reverse-splicing fitness: 0.00749
//
mutation-annotation: C82A A111G A120G A145G C150G C169A
reverse-splicing fitness: 0.00897
//
mutation-annotation: C82A A111G A145C C150A C169A U176C
reverse-splicing fitness: 0.00723
//
mutation-annotation: C82A A111C A120U C169U U176G
reverse-splicing fitness: 0.00199
//
mutation-annotation: C82A A111U A120G C150G C169G U176C
reverse-splicing fitness: 0.0044
//
mutation-annotation: A111U A145C C169U U176A
reverse-splicing fitness: 0.0252
//
mutation-annotation: A120G A145G C150G U176A
reverse-splicing fitness: 0.0423
//
mutation-annotation: A111C A120G A145U C169G
reverse-splicing fitness: 0.203
//
mutation-annotation: C82G A111U A120G
reverse-splicing fitness: 0.0168
//
mutation-annotation: C82G A111G A120G A145G C150U C169A U176A
reverse-splicing fitness: 0.0163
//
mutation-annotation: C82U A111G A120U A145U C150U U176G
reverse-splicing fitness: 0.00372
//
mutation-annotation: C82G A120U A145G C169U U176G
reverse-splicing fitness: 0.00154
//
mutation-annotation: A111G A120G A145C C150U C169G
reverse-splicing fitness: 0.088
//
mutation-annotation: C82A A111U A120U A145U C150G C169G U176C
reverse-splicing fitness: 0.00281
//
mutation-annotation: A111U A120G A145U C150U C169G U176G
reverse-splicing fitness: 0.00496
//
mutation-annotation: C82G A111U A145C C150A C169U U176A
reverse-splicing fitness: 0.0163
//
mutation-annotation: C82G A111U A145U C150U U176C
reverse-splicing fitness: 0.152
//
mutation-annotation: A111U A120U A145G C169U
reverse-splicing fitness: 0.076
//
mutation-annotation: A111C C169U U176C
reverse-splicing fitness: 0.0304
//
mutation-annotation: C82A A111U A120C A145G C150A U176A
reverse-splicing fitness: 0.0105
//
mutation-annotation: C82G A120U A145U C169G
reverse-splicing fitness: 0.00637
//
mutation-annotation: C82A A111G A145C C150A C169U
reverse-splicing fitness: 0.0104
//
mutation-annotation: C82U A111G A120C A145C U176G
reverse-splicing fitness: 0.00487
//
mutation-annotation: A111U A120C A145U C150U C169G U176A
reverse-splicing fitness: 0.0113
//
mutation-annotation: C82G A120U A145U C150A C169A U176G
reverse-splicing fitness: 0.00156
//
mutation-annotation: C82U A111C A120U A145C C150U U176C
reverse-splicing fitness: 0.00591
//
mutation-annotation: C82A A111G A120G A145C C169G U176G
reverse-splicing fitness: 0.0046
//
mutation-annotation: C82A A111U A120G A145U C150U C169A U176C
reverse-splicing fitness: 0.0139
//
mutation-annotation: C82U A111C A120U C150A C169G U176C
reverse-splicing fitness: 0.00392
//
mutation-annotation: C82G A111U A120C A145U U176G
reverse-splicing fitness: 0.00709
//
mutation-annotation: C82G A111G A120G A145U C169A U176A
reverse-splicing fitness: 0.0151
//
mutation-annotation: C82G A111C A145U C150U C169U U176G
reverse-splicing fitness: 0.00778
//
mutation-annotation: C82U A111C A120U C150A U176G
reverse-splicing fitness: 0.00295
//
mutation-annotation: C82G A111U A120U C150G C169G U176C
reverse-splicing fitness: 0.00362
//
mutation-annotation: C82A A111G A120C A145G C150A C169G U176G
reverse-splicing fitness: 0.00711
//
mutation-annotation: C82A A111C A120U A145U U176C
reverse-splicing fitness: 0.0103
//
mutation-annotation: C82U A111G A120C A145U C169U U176G
reverse-splicing fitness: 0.00307
//
mutation-annotation: C82A A111U A145G C169U
reverse-splicing fitness: 0.0129
//
mutation-annotation: C82U A111G A145U C150G C169G
reverse-splicing fitness: 0.00642
//
mutation-annotation: C82U A111G A145C C150U C169A
reverse-splicing fitness: 0.00735
//
mutation-annotation: C82U A111G A120C C150A C169A U176C
reverse-splicing fitness: 0.0156
//
mutation-annotation: C82G A111G A120U C169U U176C
reverse-splicing fitness: 0.0055
//
mutation-annotation: C82U A111G A120G A145G C150U C169G U176C
reverse-splicing fitness: 0.0168

The reported measurements were obtained from the RNAGym collection of RNA variant scans (doi:10.1093/molbev/msab373).
